System: human red blood cells (hRBC)
Type: cell-based
Conditions: red cells of human, 1 h
Where a SMILES comes first, the peptide text is derived from it. [ ]: non-standard residue; d: D form. Pro(3S-OH) = O=C(O)[C@H]1NCC[C@@H]1O; Cha = N[C@@H](CC1CCCCC1)C(=O)O; Tle = CC(C)(C)[C@H](N)C(=O)O; dDab = NCC[C@@H](N)C(=O)O; hSer = N[C@@H](CCO)C(=O)O; Orn = NCCC[C@H](N)C(=O)O; Api = NC1(C(=O)O)CCNCC1; Dab = NCC[C@H](N)C(=O)O
Reported Hemolysis at 100 μg/ml by item:
reportedProperty: Hemolysis at 100 μg/ml (%)

compound	studySystem	reportedProperty	val
CC(C)C[C@@H]1NC(=O)[C@@H]2CCCN2C(=O)[C@H]2CCCN2C(=O)[C@H](CO)NC(=O)[C@H](CC(N)=O)NC(=O)[C@H](C(C)(C)C)NC(=O)[C@H](CCN)NC(=O)[C@H](Cc2c[nH]c3ccccc23)NC(=O)[C@H](CCN)NC(=O)[C@@H](CCN)NC(=O)[C@H](CCCN)NC(=O)[C@H](CCN)NC(=O)[C@H](Cc2ccc(O)cc2)NC(=O)[C@H](Cc2ccc(O)cc2)NC1=O [compound 33] (cyclo(LYY[Dab][Orn][dDab][Dab]W[Dab][Tle]NS[dP]P))	human red blood cells (hRBC)	Hemolysis at 100 μg/ml	5
C[C@@H]1NC(=O)[C@H](C(C)(C)C)NC(=O)[C@H](CCN)NC(=O)[C@H](Cc2c[nH]c3ccccc23)NC(=O)[C@H](CCN)NC(=O)[C@H](CCN)NC(=O)[C@H](CCCN)NC(=O)[C@H](CCN)NC(=O)[C@H](CC2CCCCC2)NC(=O)[C@H](Cc2c[nH]cn2)NC(=O)[C@H](Cc2c[nH]c3ccccc23)NC(=O)[C@@H]2CCCN2C(=O)[C@H]2CCCN2C(=O)[C@H](CO)NC1=O [compound 19] (cyclo(WH[Cha][Dab][Orn][Dab][Dab]W[Dab][Tle]AS[dP]P))	human red blood cells (hRBC)	Hemolysis at 100 μg/ml	0
CC(C)C[C@@H]1NC(=O)[C@@H]2CCCN2C(=O)[C@H]2CCCN2C(=O)[C@H](CO)NC(=O)[C@H](C)NC(=O)[C@H](C(C)(C)C)NC(=O)[C@H](CCN)NC(=O)[C@H](Cc2c[nH]c3ccccc23)NC(=O)[C@H](CCN)NC(=O)[C@@H](CCN)NC(=O)[C@H](CCCN)NC(=O)[C@H](CCN)NC(=O)[C@H](Cc2c[nH]c3ccccc23)NC(=O)[C@H](Cc2c[nH]c3ccccc23)NC1=O [compound 27] (cyclo(LWW[Dab][Orn][dDab][Dab]W[Dab][Tle]AS[dP]P))	human red blood cells (hRBC)	Hemolysis at 100 μg/ml	0
CC(C)[C@@H]1NC(=O)[C@H](C(C)(C)C)NC(=O)[C@H](CCN)NC(=O)[C@H](Cc2c[nH]c3ccccc23)NC(=O)[C@H](CCN)NC(=O)[C@@H](CCN)NC(=O)[C@H](CCCN)NC(=O)[C@H](CCN)NC(=O)[C@H](CC2CCCCC2)NC(=O)[C@H](Cc2c[nH]cn2)NC(=O)[C@H](Cc2c[nH]c3ccccc23)NC(=O)[C@@H]2CCCN2C(=O)[C@H]2CCCN2C(=O)[C@H](CO)NC1=O [compound 4] (cyclo(WH[Cha][Dab][Orn][dDab][Dab]W[Dab][Tle]VS[dP]P))	human red blood cells (hRBC)	Hemolysis at 100 μg/ml	5
CC(C)(C)[C@@H]1NC(=O)[C@H](CCN)NC(=O)[C@H](Cc2c[nH]c3ccccc23)NC(=O)[C@H](CCN)NC(=O)C2(CCNCC2)NC(=O)[C@H](CCCN)NC(=O)[C@H](CCN)NC(=O)[C@H](CC2CCCCC2)NC(=O)[C@H](Cc2c[nH]cn2)NC(=O)[C@H](Cc2c[nH]c3ccccc23)NC(=O)[C@@H]2[C@@H](O)CCN2C(=O)[C@H]2CCCN2C(=O)[C@H](CO)NC(=O)[C@H](CO)NC1=O [Ex. 14] (cyclo(WH[Cha][Dab][Orn][Api][Dab]W[Dab][Tle]SS[dP][Pro(3S-OH)]))	human red blood cells (hRBC)	Hemolysis at 100 μg/ml	4
COc1ccc(C[C@@H]2NC(=O)[C@H](Cc3c[nH]cn3)NC(=O)[C@H](Cc3c[nH]c4ccccc34)NC(=O)[C@@H]3CCCN3C(=O)[C@H]3CCCN3C(=O)[C@H](CO)NC(=O)[C@H](C)NC(=O)[C@H](C(C)(C)C)NC(=O)[C@H](CCO)NC(=O)[C@H](Cc3c[nH]c4ccccc34)NC(=O)[C@H](CCN)NC(=O)[C@@H](CCN)NC(=O)[C@H](CCCN)NC(=O)[C@H](CCN)NC2=O)cc1 [Ex. 16] (cyclo(WHY(Me)[Dab][Orn][dDab][Dab]W[hSer][Tle]AS[dP]P))	human red blood cells (hRBC)	Hemolysis at 100 μg/ml	1
CC(C)(C)[C@@H]1NC(=O)[C@H](CCN)NC(=O)[C@H](Cc2c[nH]c3ccccc23)NC(=O)[C@H](CCN)NC(=O)[C@@H](CCN)NC(=O)[C@H](CCCN)NC(=O)[C@H](CCN)NC(=O)[C@H](CC2CCCCC2)NC(=O)[C@H](Cc2c[nH]c3ccccc23)NC(=O)[C@H](Cc2c[nH]c3ccccc23)NC(=O)[C@@H]2[C@@H](O)CCN2C(=O)[C@H]2CCCN2C(=O)[C@H](CO)NC(=O)[C@H](CO)NC1=O [Ex. 15] (cyclo(WW[Cha][Dab][Orn][dDab][Dab]W[Dab][Tle]SS[dP][Pro(3S-OH)]))	human red blood cells (hRBC)	Hemolysis at 100 μg/ml	0
CC[C@H](C)[C@@H]1NC(=O)[C@H](CCN)NC(=O)[C@H](Cc2c[nH]c3ccccc23)NC(=O)[C@H](CCN)NC(=O)[C@@H](CCN)NC(=O)[C@H](CCCN)NC(=O)[C@H](CCN)NC(=O)[C@H](Cc2ccc(O)cc2)NC(=O)[C@H](Cc2c[nH]cn2)NC(=O)[C@H]([C@@H](C)CC)NC(=O)[C@@H]2CCCN2C(=O)[C@H]2CCCN2C(=O)[C@H](CO)NC(=O)[C@H](C)NC1=O [compound 21] (cyclo(IHY[Dab][Orn][dDab][Dab]W[Dab]IAS[dP]P))	human red blood cells (hRBC)	Hemolysis at 100 μg/ml	1
CC[C@H](C)[C@@H]1NC(=O)[C@@H]2CCCN2C(=O)[C@H]2CCCN2C(=O)[C@H](CO)NC(=O)[C@H](C)NC(=O)[C@H](C(C)(C)C)NC(=O)[C@H](CCN)NC(=O)[C@H](Cc2c[nH]c3ccccc23)NC(=O)[C@H](CCN)NC(=O)[C@@H](CCN)NC(=O)[C@H](CCCN)NC(=O)[C@H](CCN)NC(=O)[C@H](Cc2ccc(O)cc2)NC(=O)[C@H](Cc2c[nH]cn2)NC1=O [compound 20] (cyclo(IHY[Dab][Orn][dDab][Dab]W[Dab][Tle]AS[dP]P))	human red blood cells (hRBC)	Hemolysis at 100 μg/ml	0
